Source of measurements: PubChem BioAssay (NCI)

system: SW-620 colon; experiment: NCI tumour cell line growth inhibition, 48 h; in the data active = GI50 below about 0.43 µM; inactive = the rest
Could you please pick one outcome from this set? active, inactive

{"molecule": "NS(=O)(=O)OC[C@H]1C[C@@H](Nc2ccnc3cc(-c4cccc(SC(F)(F)F)c4)nn23)[C@H](O)[C@@H]1O", "targetEntity": "SW-620 colon", "classification": "active"}
{"molecule": "Nc1nc(/C=C\\c2ccc([N+](=O)[O-])s2)nc(N2CCN(c3ccccc3)CC2)n1", "targetEntity": "SW-620 colon", "classification": "inactive"}
{"molecule": "COc1c/c(=C2\\C=c3ccccc3=N2)[nH]/c1=C\\c1[nH]c(C)cc1C", "targetEntity": "SW-620 colon", "classification": "active"}
{"molecule": "O=C1NC(=C(Cl)Cl)/C(=N/S(=O)(=O)N2CCCCC2)N1", "targetEntity": "SW-620 colon", "classification": "inactive"}
{"molecule": "CCc1ccc(Oc2c(-c3ccc(OCc4ccc(Cl)cc4)cc3O)n[nH]c2C(F)(F)F)cc1", "targetEntity": "SW-620 colon", "classification": "inactive"}

For this molecule, state the assay outcome: COc1ccc(Nc2nc3cc(N)cc(N)c3nc2-c2ccccc2)cc1
inactive

What call does the record list for O=c1oc2ccc(I)cc2c(=O)n1-c1ccc(Br)cc1F ?
inactive

Called result for CC(=O)O[C@@H]1C2CCC3C(CC[C@@]4(C)C3CC[C@@H]4C(C)N(C)C)[C@@]2(C)CC[C@@H]1NC(=O)C=C(C)C (stereo partly drawn)
inactive

====

tested on: HT29 colon; assay: NCI tumour cell line growth inhibition, 48 h
quantityKind: TGI

Below are worked cases with known answers.
{"compound": "Cc1nc2sccn2c1C(=O)NN", "quantityKind": "TGI", "result": "> 100 µM"}
{"compound": "COc1cc(C2C(Cl)C(=O)N2NC(=O)Cc2ccccc2)cc(Br)c1O (centres undefined)", "quantityKind": "TGI", "result": "> 100 µM"}
{"compound": "CC1(C)OC2C(COC(c3ccccc3)(c3ccccc3)c3ccccc3)OC(c3c[nH]c4c(N)ncnc34)C2O1 (centres undefined)", "quantityKind": "TGI", "result": "7.15 µM"}

# value lookup — system HT29 colon, readout TGI, item COc1ccc2ncn(-c3cc(O[C@H](C)c4ccccc4C(F)(F)F)c(C(N)=O)s3)c2c1
3.21 µM

Observed TGI on HT29 colon for CN[C@H]1CN(c2ccc3c(=O)c(C(=O)O)cn(-c4nccs4)c3n2)C[C@@H]1OC , please.
4.2 µM

What measured TGI is associated with O=c1oc2ccc3ccccc3c2cc1-c1nnc(Nc2ccccc2)s1 on HT29 colon?
> 100 µM

Any idea what TGI came out for CC(=O)NC1C(OC(C)C(=O)NC(C)C(=O)NC(CCC(=O)NCCCCCNc2ccc([N+](=O)[O-])c3[nH]c4ccccc4c(=O)c23)C(N)=O)C(O)C(CO)OC1(C)OCc1ccccc1 (centres undefined) on HT29 colon?
> 100 µM

Request body: readout TGI, system HT29 colon, query CNC(=O)c1c(C)oc2cc(Oc3ncnc4cc(OC)c(OC)cc34)ccc12 . Return the value.
> 100 µM

Query TGI on HT29 colon for O=c1nc2n3c4c(cccc4nc-2c(=O)[nH]1)CCC3
> 100 µM

====

test system: KM12 colon; test: NCI tumour cell line growth inhibition, 48 h
Where a SMILES comes first, the peptide text is derived from it. [ ]: non-standard residue; d: D form. The star is where a group is joined. ξ: configuration not given here. ξNMe2Val = CC(C)C(C(=O)*)N(C)C; NMeV = CN[CH](C(=O)O)C(C)C; NHBn = c1ccc(CN*)cc1
quantityKind: TGI

{"compound": "CC(C)C(NC(=O)C(C(C)C)N(C)C)C(=O)N(C)C(C(=O)N1CCCC1C(=O)N1CCCC1C(=O)NCc1ccccc1)C(C)C (stereo not given) (ξNMe2Val-V[NMeV]PP-NHBn; configuration not given here)", "targetEntity": "KM12 colon", "result": "< 0.0001 µM"}
{"compound": "CCOC(=O)C(C(=O)OCC)=C1SC(=Nc2ccccc2)C(=Nc2ccccc2)N1c1ccccc1", "targetEntity": "KM12 colon", "result": "> 100 µM"}
{"compound": "C=C(CCCCC)CN1CCCC1C(C)=O (stereo not given)", "targetEntity": "KM12 colon", "result": "> 100 µM"}
{"compound": "OC1(C(Sc2cc(C(F)(F)F)cc(C(F)(F)F)c2)Sc2cc(C(F)(F)F)cc(C(F)(F)F)c2)C=CCCC1 (stereo not given)", "targetEntity": "KM12 colon", "result": "5.83 µM"}

I'd like to know its TGI. The compound in question is C=CN(C(=O)N1CCN(c2cc3c(cc2F)c(=O)c(C(=O)O)cn3C2CC2)CC1)c1nc(-c2ccc(OC)cc2)cs1
> 100 µM

====

system: T-47D breast; test: NCI tumour cell line growth inhibition, 48 h
Where a SMILES comes first, the peptide text is derived from it. Bridges are numbered along the chain shown (N, C = ends). [ ]: non-standard residue; d: D form. Aib = CC(C)(N)C(=O)O; βAla = NCCC(=O)O
Below: a set of entries, each annotated with reported TGI.

Before answering, review these 6 worked examples.
{"compound": "c1ccc2c(CSCc3cccc4ccccc34)cccc2c1", "TGI": "> 100 µM"}
{"compound": "CC1Cc2c(Cl)ncnc2N(C)c2ccc(Cl)cc21 (stereo not drawn)", "TGI": "> 100 µM"}
{"compound": "COC(=O)[C@@H]1c2cc3c(c(O)c2[C@@H](OC2OC(C)C(OC)C(C)(OC)C2OC)C[C@]1(C)O)C(=O)c1c(O)cc2c(c1C3=O)O[C@H]1O[C@]2(C)[C@H](O)[C@@H](N(C)C)[C@@H]1O (stereo partly drawn)", "TGI": "0.889 µM"}
{"compound": "CC(C)(C)C(=O)OCOP(=O)(NCc1ccccc1)C1CCCN(O)C1=O (stereo not drawn)", "TGI": "57.6 µM"}
{"compound": "CCOc1cc(C2CC(c3ccc(NS(=O)(=O)c4cc([N+](=O)[O-])ccc4C)cc3)=NN2S(=O)(=O)c2cc([N+](=O)[O-])ccc2C)ccc1O (stereo not drawn)", "TGI": "65.1 µM"}
{"compound": "C=CCOC(=O)CC[C@H](NC(=O)[C@@H](CCC(F)(F)F)Cc1ccc(O)cc1)C(=O)OCC=C", "TGI": "51.5 µM"}

Requested field: TGI. Item: CCOCCOCCOCc1nc(C#N)c(N)o1
> 100 µM

Which TGI value is on record for CC1(C)NC(=O)C(NC(=O)C(N)CC(=O)O)CCCCNC(=O)CCNC1=O (stereo not drawn) (H-DK[Aib][βAla]; lactam 2-C; configuration not given here) ?
> 100 µM

Need TGI, item COc1ccc2c(c1)C(=O)c1c-2n(CCCN(C)C)c(=O)c2ccccc12
3.56 µM

Endpoint output: TGI of Cc1nc([N+](=O)[O-])cn1-c1nc2ccccn2c1[N+](=O)[O-] . Value?
> 100 µM

Return reported TGI; argument: COc1ccc(N=c2oc3ccccc3cc2C(N)=O)cc1
> 100 µM

====

system: OVCAR-8 ovarian; assay: NCI tumour cell line growth inhibition, 48 h
quantityKind: TGI

Would you please look over these solved cases?
{"compound": "CC1CC(N)=C(C#N)C1(C#N)C#N (configuration not stated)", "result": "> 100 µM"}
{"compound": "c1csc(-c2nn3c(C45CC6CC(CC(C6)C4)C5)nnc3s2)c1", "result": "> 100 µM"}
{"compound": "C=CSCCC(N)C(=O)O (configuration not stated)", "result": "> 100 µM"}
{"compound": "CC(=O)Nc1ccc2c3c(cc(O)c2c1)N(C(=O)CCCC(=O)N1CC(CCl)c2c1cc(O)c1cc(NC(C)=O)ccc21)CC3CCl (configuration not stated)", "result": "> 100 µM"}
{"compound": "NC(=O)C1CCCN1C(=O)C(Cc1cnc[nH]1)NC(=O)C1CCCC1 (configuration not stated)", "result": "> 100 µM"}
{"compound": "COc1cc(C(=O)NC2CCc3cc(OC)c(OC)c(OC)c3-c3ccc(OC)c(=O)cc32)cc(OC)c1OC (configuration not stated)", "result": "> 46.1 µM"}

// TGI lookup, key: NCCSSCc1ccccc1CSSCCN
> 100 µM

Entry under review: O=C(Nc1ccc(C(F)(F)F)cc1)NC(F)(F)F . Reported TGI?
> 100 µM

Looking for the measured TGI of Cc1ccc(O)c(NC(=O)c2cccc(Nc3ccnc(C(F)(F)F)c3)c2)c1 , can you help?
19.7 µM

TGI for O=C(CCC(=O)Nc1ccc(Cl)c(Cl)c1)Cc1nc2ccccc2o1 ?
> 100 µM

// returns reported TGI for input CCC[C@H]1O[C@@H]2CC(=O)O[C@@H]2C2=C1C(=O)C=CC2=O
> 74.9 µM

For COc1ccccc1/C=C/c1ccnc2ccccc12 , what is its reported TGI?
30.2 µM
